# Test system: SK-MEL-28 melanoma
# method_summary: NCI tumour cell line growth inhibition, 48 h
measured_endpoint: TGI (µM)
Respond with the bare value in µM.

Please review the following examples before continuing.
compound="COc1cccc(C2C(C#N)=C(N)Oc3cc4c(cc32)OCO4)c1 (stereo unspecified)" unit_name=µM experimental_value=32.6
compound=COc1ccc(-c2cc(-c3ccccc3)nc(NCCNc3ccnc4cc(Cl)ccc34)n2)cc1 unit_name=µM experimental_value=3.35

Memo: CC1(Cl)CC(C)(/C=C/Cl)C(Cl)CC1Cl (stereo unspecified) , reported TGI: 29.4

* * *

# Tested on: EKVX NSCLC
# method_summary: NCI tumour cell line growth inhibition, 48 h
measured_endpoint: TGI

Worked examples, 5 compounds total:
compound="O=C1CCS/C(=N/S(=O)(=O)c2ccc(N3N=C4c5ccccc5CC4C3c3cccs3)cc2)N1Cc1ccccc1 (stereo unspecified)" measured_endpoint=TGI experimental_value="65.8 µM"
compound="C#Cc1cccc(NC(=O)C2CCCN(C(=O)CCl)C2)c1 (stereo unspecified)" measured_endpoint=TGI experimental_value="> 82.5 µM"
compound="NNC(=O)N/N=C1\\CN(c2ccc(Cl)cc2Cl)C(=O)C(=O)C1c1nc2ccccc2o1 (stereo unspecified)" measured_endpoint=TGI experimental_value="> 100 µM"
compound=COc1ccc(/C(C)=C(\c2ccc(Cl)cc2)c2ccc(OCCN3CCCCCC3)cc2)cc1F measured_endpoint=TGI experimental_value="> 16.7 µM"
compound="CC(=O)N1c2cc(N=NN(C)C)ccc2NC(=O)CC1C (stereo unspecified)" measured_endpoint=TGI experimental_value="> 100 µM"

Measured TGI of c1cc2c(cc1[C@@H]1OC[C@@H]3[C@H]1CO[C@H]3c1ccc3c(c1)OCO3)OCO2 : 83.6 µM

For reference, reported TGI for O=C(Nc1ccc(C(F)(F)F)cc1[N+](=O)[O-])c1cccnc1 stands at > 100 µM

// field: TGI; key: NC(N)=N/N=C/c1c(-c2ccncc2)nc2sc(Cl)cn12 ; value = 39.2 µM

TGI measured on COc1c(O)c2c3c(c1OC)-c1ccccc1CC3N(S(=O)(=O)c1ccc(C)cc1)CC2 (stereo unspecified) = > 50 µM

response.value for CN(C)c1ccc(C2CC(C)(O)Oc3cc4c(cc32)OCO4)cc1 (stereo unspecified) (field: TGI) = > 100 µM

get_value(item= S=c1[nH]n2c(COc3cc(Cl)c(OCc4nnc5sc(=S)[nH]n45)cc3Cl)nnc2s1 , readout=TGI) returns > 100 µM

Recorded result, Cn1ccnc1C(=O)/C=C/c1ccc(C(=O)Nc2c(F)c(F)c(F)c(F)c2F)cc1 , TGI: 5.85 µM

Field TGI (entry CN(C)C(=O)Oc1ccc(C(=S)Nc2ccccc2)cc1 ) reads > 100 µM

GET /value?item= Fc1ccc(-c2nn3c(COc4ccc(Cl)cc4)nnc3s2)cc1Oc1ccccc1 &field=TGI returns > 74.2 µM

TGI measured on CCOC(=O)C1CCC(=O)N1C(=O)c1ccc(Cl)cc1 (stereo unspecified) = > 100 µM

Entry CCOc1ccccc1NC(=O)C1=C(C)NC(C)=C(C(=O)Nc2ccccc2OCC)C1c1ccc([N+](=O)[O-])cc1 — recorded TGI = > 100 µM

* * *

# System: OVCAR-8 ovarian
# method_summary: NCI tumour cell line growth inhibition, 48 h; in the data active means GI50 below about 0.43 µM; inactive means the rest
Write down the outcome that applies. Available outcomes: active, inactive

Consider the worked cases shown below.
compound_string=CC1=C2[C@@H](CC1)[C@]1(C)O[C@@](C3CC3)(C[C@H]1OC(=O)CO)[C@H]2OC(=O)/C=C/c1ccccc1 assigned_category=active
compound_string=CC1(C)CC[C@]2(C(=O)O)CC[C@]3(C)C(=CC[C@@H]4[C@@]5(C)C/C(=C/c6ccco6)C(=O)C(C)(C)[C@@H]5CC[C@]43C)[C@@H]2C1 assigned_category=inactive
compound_string=N#CC(NC(=O)CCl)=C(Cl)Cl assigned_category=inactive

Below: the item to evaluate.
[Q] What did this assay record as the result for CCN(CC)CCOc1ccc2c(C)c(C(=O)OC)oc2c1C(=O)/C=C/c1ccc(OC)cc1 ?
[A] inactive
